Molecular target: EGFR (Homo sapiens (Human))
Sequence (P00533 25-1210): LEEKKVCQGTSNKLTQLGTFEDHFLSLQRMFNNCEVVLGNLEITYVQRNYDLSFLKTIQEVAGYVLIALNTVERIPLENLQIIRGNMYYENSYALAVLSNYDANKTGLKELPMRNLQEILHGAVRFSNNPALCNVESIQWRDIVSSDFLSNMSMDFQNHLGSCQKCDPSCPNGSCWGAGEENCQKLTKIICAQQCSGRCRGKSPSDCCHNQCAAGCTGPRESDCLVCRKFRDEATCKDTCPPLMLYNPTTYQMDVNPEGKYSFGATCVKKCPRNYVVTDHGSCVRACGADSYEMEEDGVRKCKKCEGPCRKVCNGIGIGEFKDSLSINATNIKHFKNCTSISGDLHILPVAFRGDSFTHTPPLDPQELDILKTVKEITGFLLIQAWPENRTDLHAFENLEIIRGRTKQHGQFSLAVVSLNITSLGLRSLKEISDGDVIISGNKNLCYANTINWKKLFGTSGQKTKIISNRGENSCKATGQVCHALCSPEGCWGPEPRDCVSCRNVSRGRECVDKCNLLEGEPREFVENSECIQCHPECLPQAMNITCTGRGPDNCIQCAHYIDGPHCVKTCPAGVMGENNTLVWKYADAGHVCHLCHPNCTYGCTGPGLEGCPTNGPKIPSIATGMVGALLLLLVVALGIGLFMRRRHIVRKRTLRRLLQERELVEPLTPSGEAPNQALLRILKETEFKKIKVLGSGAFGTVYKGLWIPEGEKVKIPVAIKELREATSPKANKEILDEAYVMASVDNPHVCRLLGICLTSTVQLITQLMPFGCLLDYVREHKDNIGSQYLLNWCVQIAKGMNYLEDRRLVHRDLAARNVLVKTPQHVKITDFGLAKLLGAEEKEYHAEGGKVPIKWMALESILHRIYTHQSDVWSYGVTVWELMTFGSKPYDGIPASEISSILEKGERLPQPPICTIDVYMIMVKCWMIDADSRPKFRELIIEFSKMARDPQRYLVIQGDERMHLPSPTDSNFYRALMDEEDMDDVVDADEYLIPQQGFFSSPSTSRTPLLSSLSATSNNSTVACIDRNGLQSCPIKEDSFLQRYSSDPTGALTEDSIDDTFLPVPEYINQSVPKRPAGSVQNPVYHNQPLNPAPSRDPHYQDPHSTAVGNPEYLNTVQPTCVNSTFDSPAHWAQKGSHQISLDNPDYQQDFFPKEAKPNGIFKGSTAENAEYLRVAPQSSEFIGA
Assay: Z'-LYTE / Adapta kinase assay, EGFR
Format: biochemical
Conditions: read-out: EGFR % Inh. @ 100 nM
Below, each entry is listed alongside its reported inhibition at 0.1 µM.
measure: inhibition at 0.1 µM

In [3]: df
Out[3]:
                                   molecule     result
0  CC(Nc1ncnc2ccc(-c3cnc(N)c(S(C)(=O)=O)c3)cc12)c1ccccc1 (centres unmarked)      > 90%
1  COc1ncc(-c2ccc3ncnc(N[C@H](C)c4ccccc4)c3c2)cc1C#N  10 to 80%
2  C[C@H](Nc1c(C#N)cnc2ccc(-c3cnc(Cl)c(NS(C)(=O)=O)c3)cc12)c1ccccc1 [Compound 48S]      < 10%
3  CC(Nc1ncnc2ccc(-c3ccc4oc(N)nc4c3)cc12)c1ccccc1 (centres unmarked)      > 90%
4  CC(Nc1c(C#N)cnc2ccc(-c3cncc(-c4n[nH]c(=O)o4)c3)cc12)c1ccccc1 (centres unmarked)  80 to 90%
5  C[C@@H](Nc1ncnc2ccc(-c3cnc(Cl)c(NS(C)(=O)=O)c3)cc12)c1ccc(F)cc1 [Compound 111R]  10 to 80%
6  CC(Nc1c(C#N)cnc2ccc(-c3cncc(O)c3)cc12)c1ccccc1 (centres unmarked)  80 to 90%
7  C[C@@H](Nc1c(C#N)cnc2ccc(-c3cnc(N)nc3)cc12)c1ccccc1 [Compound 53R]      > 90%
